# System: TYKNU
# MEASUREMENT DESCRIPTION: fractional viability relative to vehicle; TYKNU is a high-grade serous ovarian cancer line; higher = less growth inhibition
# APPLIED CONDITIONS: 2uM; 72 h; genotype: DNM1L knockout (sgDNM1L #1)
Counter-ions that a name gives are not always drawn. In all, about 2,000 compounds were measured (“fractional viability relative to vehicle”: median about 0.91, lowest 2% from about 0.045 on). Shown is part of a subset that was picked to be rich in the lowest values.

| COMPOUND | fractional viability |
| --- | --- |
| C[N+](C)(C)C[C@H](O)CC(=O)[O-] [L-carnitine] | 1.12 |
| O=C(Nc1cccc(Cl)c1)Nc1ncc(CCNc2ncnc3ccsc23)s1 [SNS-314 Mesylate] | 0.705 |
| CC(C)OC(=O)C1=CN(C(=O)c2ccc(F)c(F)c2)CC(C)(C)c2c1[nH]c1ccccc21 | 0.991 |
| COc1cc(N2CCC(N)CC2)ccc1Nc1ncc(Cl)c(-c2c[nH]c3ccccc23)n1 | 0.359 |
| O=C1NC(=O)/C(=C/c2cccc(C(F)(F)F)c2)S1 | 0.748 |
| Nc1[nH]nc2nnc(-c3c(-c4ccccc4)nn4ccccc34)cc12 | 0.851 |
| O=C(O)c1cc(=O)[nH]c(=O)[nH]1 [Orotic acid (6-Carboxyuracil)] | 0.916 |
| Cc1ncc([N+](=O)[O-])n1CC(O)CCl (centres undefined) [Ornidazole] | 1.42 |
| COc1cc(OC)c2c(=O)[nH]c(-c3cc(C)c(OCCO)c(C)c3)nc2c1 | 1.15 |
| CCCCNc1ncc2c(-c3ccc(CN4CCN(C)CC4)cc3)cn([C@H]3CC[C@H](O)CC3)c2n1 | 0.322 |
| CNC(=O)c1ccccc1Nc1nc(Nc2ccc(N3CCOCC3)cc2OC)ncc1Cl | 0.85 |
| C=C1C(=O)O[C@@H]2/C=C(\C)CC/C=C(\C)CC[C@@H]12 [Costunolide] | 0.946 |
| CC(C)C[C@H](NC(=O)CNC(=O)c1cc(Cl)ccc1Cl)B(O)O | 0.122 |
| C=C1C(=O)O[C@H]2[C@H]1CC/C(C)=C/CC[C@@]1(C)O[C@@H]21 [(-)-Parthenolide] | 0.336 |
| C=C1CC[C@H](O)C/C1=C/C=C1\CCC[C@]2(C)[C@@H]([C@H](C)/C=C/[C@H](C)C(C)C)CC[C@@H]12 [Vitamin D2] | 1.19 |
| Cc1cc(OCc2nnc(SC3CCCC3)n2-c2cccnc2)ccc1-c1ccc(S(C)(=O)=O)cc1 | 0.545 |
| CC(C)c1cnn2c(NCc3ccccc3)cc(NCCCCCCN)nc12 | 1.09 |
| COc1ccc(-c2ccc3ncc4c(c3c2)n(-c2ccc(N3CCNCC3)c(C(F)(F)F)c2)c(=O)n4C)cn1 | 0.0297 |
| Nc1ccc(-c2ccc3ncc4ccc(=O)n(-c5cccc(C(F)(F)F)c5)c4c3c2)cn1 [Torin 2] | 0.125 |
